# credit: paper PMC9025336

Biological target: 70S ribosome extract of E. coli BW25113 (E. coli BW25113 (endogenous))
Test: fluorescence polarisation; competition: unlabeled peptide (2-fold series from 656 µmol/L) pre-incubated with BW25113 ribosome extract (28 °C, 90 min), then cf-Api137 (10 µL, 80 nmol/L) added (28 °C, 90 min); ribosome preparation buffer; Ki calculated from IC50
Square brackets hold non-standard residues; d marks the D form. Ends that are not written are not given here.
Recorded measurements of pKi, one per entry
Would you please state pKi, meaning minus log10 of the concentration in mol/L, as a bare number?

INPUT: Entry GNNRPIYIPRPRPPHPRPIRV-OH [Api805] : reported pKi = ?
OUTPUT: 5.97

INPUT: Sample GNNRPIYIPRPRPPHPRL-OH [Api801] — what was its pKi?
OUTPUT: 8.70

INPUT: Give its pKi value. Item: VDKPPYLPRPRPPR[dR]IYN[dR]-NH2 [Onc112]
OUTPUT: 6.22
